- Tested on: PC-3 prostate
- assay: NCI tumour cell line growth inhibition, 48 h
outcome measure: GI50

// worked examples, GI50 included
CCSc1nc(=S)[nH]c2[nH]ncc12 ... > 100 µM
COc1cc(/C=C2\C[C@H]3[C@@H]4CC=C5C[C@@H](OC(C)=O)CC[C@]5(C)[C@H]4CC[C@]3(C)[C@H]2OC(C)=O)ccc1OCCCn1ccnc1 ... 11.5 µM

Ask: Give recorded GI50 with PC-3 prostate for the following molecule: C=C1C(=O)O[C@H]2[C@H]1CC/C(COC(=O)N[C@@H](Cc1c[nH]c3ccccc13)C(=O)OC)=C\CC[C@@]1(C)O[C@@H]21
Reply: 1.45 µM

* * *

- Test system: NCI-H460 lung
- assay: NCI tumour cell line growth inhibition, 48 h
Listed below: TGI values for each entry.

COc1ccc2c(c1)/C(=C/c1c(-c3ccc(C)cc3)nc3sc(C)cn13)C(=O)N2 ... 56.2 µM

Ask: Give recorded TGI with NCI-H460 lung for the following compound: CC1=C/C(=N\N(C)C)C(C(O)(C(F)(F)F)C(F)(F)F)C(C)(C)C1 (stereo unspecified)
Reply: > 100 µM

Ask: Give recorded TGI with NCI-H460 lung for the following compound: CCC(=O)Nc1ccc2c(c1)CN1C(=O)c3ccccc3C1=N2
Reply: > 100 µM

Ask: Give recorded TGI with NCI-H460 lung for the following compound: COc1c(C(CC(C)C)OC(C)=O)ccc2c1C(=O)OCc1cc(C)cc(O)c1O2 (stereo unspecified)
Reply: 26.8 µM

Ask: Give recorded TGI with NCI-H460 lung for the following compound: O=C1c2scnc2-c2nccc3c2c1nc1ccccc13
Reply: 1.58 µM

Ask: Give recorded TGI with NCI-H460 lung for the following compound: COc1ccc(/C=c2/[nH]c(=O)/c(=C\c3ccc(OCc4ccccc4)cn3)[nH]c2=O)cc1
Reply: > 100 µM

Ask: Give recorded TGI with NCI-H460 lung for the following compound: Cc1nc(Nc2ccccc2)sc1C(=O)NNC(N)=O
Reply: > 100 µM

Ask: Give recorded TGI with NCI-H460 lung for the following compound: CC(C(O)c1ccccc1)N(C)/N=N/c1nc2c([nH]1)c(=O)n(C)c(=O)n2C (stereo unspecified)
Reply: > 100 µM

Ask: Give recorded TGI with NCI-H460 lung for the following compound: O=C1c2ccccc2-c2ccc(O)cc21
Reply: 76.3 µM

Ask: Give recorded TGI with NCI-H460 lung for the following compound: c1cc2[se][se]c3c4cccc5[se][se]c(c(c1)c23)c54
Reply: > 100 µM

Ask: Give recorded TGI with NCI-H460 lung for the following compound: O=C(O)C(Cc1ccccc1)N1C(=O)c2ccccc2C1=O (stereo unspecified)
Reply: > 100 µM

* * *

- System: NCI-H460 lung
- assay: NCI tumour cell line growth inhibition, 48 h
outcome measure: TGI

C=C1[C@H](OCC(C)C)[C@@H](OCC(C)C)[C@@H](O)C(C)(C)/C=C/[C@H](C)C(=O)[C@@]2(O)C[C@H](C)[C@H](O)[C@@H]2[C@H]1OCC(C)C ... > 7.5 µM

Ask: Fill in: TGI of COc1cc2c3c(n(CCCn4ccnc4)c(=O)c2cc1OC)-c1ccccc1C3=O is ___
Reply: 4.77 µM

Ask: Fill in: TGI of CCCOc1ccc(/C=C/C2=[N+](CCO)CCO2)cc1 is ___
Reply: > 100 µM

Ask: Fill in: TGI of COc1ccc(C(=O)c2ccc(OC)cc2OC)cc1 is ___
Reply: 89.5 µM

Ask: Fill in: TGI of COc1ccc(C2c3cc4c(cc3OC(O)(CO)C2C(=O)O)OCO4)c(OC)c1OC (configuration not stated) (tested in a mixture with another compound) is ___
Reply: > 100 µM

Ask: Fill in: TGI of COc1c(C(=O)O)cccc1-c1cccc(C(=O)NCCN(CCNC(=O)c2cccc(-c3cccc(C(=O)O)c3OC)c2OC)CCNC(=O)c2cccc(-c3cccc(C(=O)O)c3OC)c2OC)c1OC is ___
Reply: > 100 µM

* * *

- Test system: UO-31 renal
- assay: NCI tumour cell line growth inhibition, 48 h
Listed below: TGI values for each entry.

Nc1nc(F)nc2c1ncn2C1OC(COP(=O)(O)O)C(O)C1O (centres undefined) ... 76.4 µM

Ask: Fill in: TGI of C=CCNC(NCC=C)=C(C(Cl)=C(Cl)Cl)[N+](=O)[O-] is ___
Reply: > 100 µM

Ask: Fill in: TGI of CC(=O)C1(c2ccccc2)CCCN(C)CC1 (centres undefined) is ___
Reply: > 100 µM

* * *

- Tested on: SK-MEL-28 melanoma
- assay: NCI tumour cell line growth inhibition, 48 h
outcome measure: TGI

// worked examples, TGI included
CO[C@@]12C[C@@H](CNC(=O)c3cc(Br)c[nH]3)O[C@@H]1NC(=O)N2 ... > 100 µM
CCC[CH2][Sn]([CH2]CCC)([O]C(=O)c1cccc(F)c1F)[O][Sn]([CH2]CCC)([CH2]CCC)[O]C(=O)c1cccc(F)c1F ... 0.369 µM
COc1nc(C#CCCCC#N)nc(OC)n1 ... 34.8 µM
C[N+]1(C)C2CCC1CC(OC(=O)C(CO)c1ccccc1)C2 (stereo unspecified) ... > 100 µM
S=C(NCCCCCCNC(=S)Nc1c2ccccc2nc2ccccc12)Nc1c2ccccc2nc2ccccc12 ... > 100 µM

Consider the additional compound presented here.
Ask: Fill in: TGI of COC(=O)c1cccc(C)c1C1CN=NC12Cc1c(ccc(C)c1C)C2=O (stereo unspecified) is ___
Reply: > 100 µM

* * *

- System: SK-MEL-5 melanoma
- assay: NCI tumour cell line growth inhibition, 48 h
Listed below: TGI values for each entry.

// worked examples, TGI included
CN1CCC23c4ccccc4NC1C21CCN(C)C3Nc2ccccc21 ... > 174 µM
CCSc1nc(=S)[nH]c2[nH]ncc12 ... > 100 µM
CCC(C)C(NC(=O)C(CCCCN)NC(=O)C(NC(=O)C(CCC(N)=O)NC(=O)C(CCCNC(=N)N)NC(C)=O)C(C)CC)C(=O)NC(Cc1c[nH]c2ccccc12)C(=O)NC(Cc1ccccc1)C(=O)NC(CCC(N)=O)C(=O)NC(CC(N)=O)C(=O)NC(CCCNC(=N)N)C(=O)NC(CCCNC(=N)N)C(=O)NC(CCSC)C(=O)NC(CCCCN)C(=O)NC(Cc1c[nH]c2ccccc12)C(=O)NC(CCCCN)C(=O)NC(CCCCN)C(N)=O (stereo not drawn) ... > 50 µM
C=C1C(C2(C)C=CC(=O)OC3(C)COC(=O)CC32)C(OC=O)C(OC(=O)C(O)C(C)CC)C2(C)C(c3ccoc3)CC(OC(C)=O)C12O (stereo not drawn) ... > 100 µM
COc1ccc(/C=c2/[nH]c(=O)/c(=C\c3ccc(OCc4ccccc4)cn3)[nH]c2=O)cc1 ... > 100 µM
CC1N(O)C(c2ccccc2)C(c2ccccc2)=[N+]1[O-] (stereo not drawn) ... > 100 µM

Ask: Fill in: TGI of CCOC(=O)Cc1nc2nn(Cc3ccccc3)cc2c(=O)[nH]1 is ___
Reply: > 100 µM

Ask: Fill in: TGI of CC(C)CC(NC(=O)OCc1ccccc1)C(=O)NCCCCC(N)C(=O)NC(CCCCNC(=O)C(CC(C)C)NC(=O)OCc1ccccc1)C(=O)NC(CCCCNC(=O)C(CC(C)C)NC(=O)OCc1ccccc1)C(=O)NC(CCCCNC(=O)C(CC(C)C)NC(=O)OCc1ccccc1)C(=O)NC(CCCCNC(=O)C(CC(C)C)NC(=O)OCc1ccccc1)C(=O)NC(CCCCNC(=O)C(CC(C)C)NC(=O)OCc1ccccc1)C(=O)O (stereo not drawn) is ___
Reply: > 100 µM

* * *

Listed below: TGI values for each entry.
- Test system: SW-620 colon
- assay: NCI tumour cell line growth inhibition, 48 h

// worked examples, TGI included
NC(=S)Nc1nnc(-c2ccc(-c3nnc(NC(N)=S)o3)cc2)o1 ... > 100 µM
O=C1CS(=O)(=O)C(c2cccc(Oc3ccccc3)c2)N1c1cccc(Cl)c1Cl (centres undefined) ... > 100 µM

Ask: Fill in: TGI of NC(=O)CC1(O)C=CC(=O)C=C1 is ___
Reply: > 100 µM

Ask: Fill in: TGI of O=C(Nc1cccc(-c2nc3ccccc3[nH]2)c1)c1cccc(NC(=O)c2ccco2)c1 is ___
Reply: 10.8 µM

* * *

- System: MDA-MB-435
- assay: NCI tumour cell line growth inhibition, 48 h
Listed below: TGI values for each entry.

// worked examples, TGI included
OCC1OC(O)C(N=Cc2ccc3c(c2)OCO3)C(O)C1O (configuration not stated) ... > 100 µM
Cn1c(=S)[nH]c2c(Cl)cc(Cl)cc2c1=O ... > 100 µM
N#Cc1c(N)nc(N2CCOCC2)c(C#N)c1-c1cccc(O)c1 ... > 100 µM
Cc1cc2c(cc1Cl)SC(NNC(=O)c1ccncc1)=NS2(=O)=O ... > 10 µM
CCOC(=O)C(NC(=O)NCc1ccc(F)cc1)C(F)(F)F (configuration not stated) ... > 100 µM
CCC(C)C(NC(=O)C(CCCCN)NC(=O)C(NC(=O)C(CCC(N)=O)NC(=O)C(CCCNC(=N)N)NC(C)=O)C(C)CC)C(=O)NC(Cc1c[nH]c2ccccc12)C(=O)NC(Cc1ccccc1)C(=O)NC(CCC(N)=O)C(=O)NC(CC(N)=O)C(=O)NC(CCCNC(=N)N)C(=O)NC(CCCNC(=N)N)C(=O)NC(CCSC)C(=O)NC(CCCCN)C(=O)NC(Cc1c[nH]c2ccccc12)C(=O)NC(CCCCN)C(=O)NC(CCCCN)C(N)=O (configuration not stated) ... > 50 µM

Ask: Fill in: TGI of CCOC(=O)Cc1nc2nn(Cc3ccccc3)cc2c(=O)[nH]1 is ___
Reply: > 100 µM
